System: MS2 coat protein
Test: apparent Kd, MS2 coat protein; higher = weaker binding; RNA-MaP array
Conditions: designed as: OFF switch for flavin mononucleotide; no ligand
Entry flag: met if apparent Kd reaches 80 nM; not met if it does not.

Would you please look over these solved cases?
UCCUAUUCAGGAUAUGCGACACGAAACAUGAGGAUCACCCAUGUCUGGGCACCUCAAAGCGCAGAAGGGAACAACG    met
AGUGGGUUUCAGGAUAUAAUAUUAUCAACCAUAUUAGAAGGGAAUACAUGAGGAUCACCCAUGUUGAGUAUACG    not met
CCACCAACAGGAUAUACGCUGAGGUUUUCUAACGGUCAUGUACAUGAGGAUCACCCAUGUAGAAGGGUUGUAGG    not met
GAUCGUUGGGUAAGGAUAUAAGUUUAUUGCUUGGGUUAGAAGGUACAUGAGGAUCACCCAUGUAGGUGAGUCAC    not met
CCUGCAGGUCAGGAUAUCAUAUCUGGCUAACUAUGAGAAGGGACAACAUGAGGAUCACCCAUGUGGUGAUAACA    met
UAUUUGGGCAAGAAGGCAGGUUACAGCCAGCAUUAUCCACAUGAGGAUCACCCAUGUUCGGCGACUGAGGAUAUUGCCAAACCU    not met

Shifting focus to the sequence that follows.
# input Would you say "UCAUCGAGAGAGGAUAUCGUAGCAAUUCACCAGCGAGAAGGCUCGACAUGAGGAUCACCCAUGUGGCUCCGCUU" shows apparent Kd at minimum 80 nM?
# output not met
